target: Neuronal acetylcholine receptor; alpha4/beta2 (Homo sapiens, UniProt P17787+P43681)
Sequence (P17787 whole entry): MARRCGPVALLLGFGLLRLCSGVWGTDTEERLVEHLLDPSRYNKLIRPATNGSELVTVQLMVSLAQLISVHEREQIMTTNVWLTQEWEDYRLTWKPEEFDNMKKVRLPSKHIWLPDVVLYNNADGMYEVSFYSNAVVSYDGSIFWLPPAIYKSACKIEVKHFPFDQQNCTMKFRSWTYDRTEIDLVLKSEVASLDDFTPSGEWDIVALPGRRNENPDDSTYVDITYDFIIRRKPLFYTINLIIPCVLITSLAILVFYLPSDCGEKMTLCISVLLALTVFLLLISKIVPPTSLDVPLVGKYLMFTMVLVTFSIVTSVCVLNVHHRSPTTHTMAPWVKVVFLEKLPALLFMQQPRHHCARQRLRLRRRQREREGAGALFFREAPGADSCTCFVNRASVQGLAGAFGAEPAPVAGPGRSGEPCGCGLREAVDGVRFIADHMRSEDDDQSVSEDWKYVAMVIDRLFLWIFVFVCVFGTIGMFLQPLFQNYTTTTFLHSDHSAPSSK
Sequence (P43681 whole entry): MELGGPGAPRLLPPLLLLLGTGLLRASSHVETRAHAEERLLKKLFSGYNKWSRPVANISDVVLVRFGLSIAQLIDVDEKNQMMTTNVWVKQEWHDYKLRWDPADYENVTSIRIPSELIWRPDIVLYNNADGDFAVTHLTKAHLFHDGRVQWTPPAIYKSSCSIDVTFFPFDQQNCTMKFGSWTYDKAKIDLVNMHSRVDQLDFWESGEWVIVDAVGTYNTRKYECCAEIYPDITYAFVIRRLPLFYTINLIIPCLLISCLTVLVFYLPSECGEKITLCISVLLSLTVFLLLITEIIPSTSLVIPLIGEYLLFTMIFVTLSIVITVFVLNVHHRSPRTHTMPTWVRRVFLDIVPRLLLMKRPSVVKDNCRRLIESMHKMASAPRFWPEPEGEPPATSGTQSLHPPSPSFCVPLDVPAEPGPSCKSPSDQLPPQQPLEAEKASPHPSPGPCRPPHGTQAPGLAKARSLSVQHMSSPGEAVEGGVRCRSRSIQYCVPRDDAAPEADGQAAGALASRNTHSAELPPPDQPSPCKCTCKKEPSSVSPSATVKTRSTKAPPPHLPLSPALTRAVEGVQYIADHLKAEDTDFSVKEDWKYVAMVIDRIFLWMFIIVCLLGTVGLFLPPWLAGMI
Property label: IC50 (nM)

[
  {
    "Compound": "C[C@@H]1CC2N(C)CC3c4cccc(=O)n4CC2(O)C31 (some centres undefined)",
    "Measured": 260
  },
  {
    "Compound": "CN1CC2c3cccc(=O)n3CC3C2[C@H](CO)CC31 (some centres undefined)",
    "Measured": 3.9
  },
  {
    "Compound": "C[C@@H]1CC2NCC3c4cccc(=O)n4CC2C31 (some centres undefined)",
    "Measured": 4.8
  },
  {
    "Compound": "C[C@@H]1CC2C3Cn4c(cccc4=O)C(CN2C)C31 (some centres undefined)",
    "Measured": 0.96
  }
]

====

EC50: recorded values
molecular target: Neuronal acetylcholine receptor; alpha4/beta2 (Homo sapiens, UniProt P17787+P43681); test: Agonist activity at human alpha4beta2 nAChR expressed in Xenopus oocytes; format: cell-based, Oocyte

[
  {
    "Smiles text": "C1=C[C@@H](c2cccnc2)NCC1",
    "Readout unit": "nM",
    "EC50": 1010
  },
  {
    "Smiles text": "C1=C[C@H](c2cccnc2)NCC1",
    "Readout unit": "nM",
    "EC50": 310
  }
]

====

molecular target: Neuronal acetylcholine receptor subunit alpha-7 (Rattus norvegicus)
Sequence (Q05941 whole entry): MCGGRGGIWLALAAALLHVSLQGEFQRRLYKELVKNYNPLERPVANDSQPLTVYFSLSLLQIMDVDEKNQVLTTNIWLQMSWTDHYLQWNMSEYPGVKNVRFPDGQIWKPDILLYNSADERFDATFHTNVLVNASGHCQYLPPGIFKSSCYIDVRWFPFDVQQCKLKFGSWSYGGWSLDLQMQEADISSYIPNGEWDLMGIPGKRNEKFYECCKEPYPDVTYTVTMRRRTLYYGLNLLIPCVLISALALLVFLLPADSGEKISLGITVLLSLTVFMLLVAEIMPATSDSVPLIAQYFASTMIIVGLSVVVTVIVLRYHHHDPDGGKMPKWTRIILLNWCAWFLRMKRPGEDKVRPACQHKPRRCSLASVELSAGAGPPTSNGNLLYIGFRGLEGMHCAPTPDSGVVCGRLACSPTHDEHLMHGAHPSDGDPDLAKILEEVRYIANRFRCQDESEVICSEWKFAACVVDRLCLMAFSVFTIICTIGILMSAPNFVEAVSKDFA

[
  {
    "Molecule": "c1cncc(C2=NCCCC2)c1 [ANABASEINE]",
    "Readout unit": "µM",
    "EC50": 6.7
  }
]

====

experiment: Displacement of [3H]nicotine from neurokinin receptor (unknown origin); design: species or system Homo sapiens
pIC50: −log10 of the molar value.

[
  {
    "Smiles text": "CN(C)CC/C=C/c1cccnc1",
    "pIC50": "< 5.00"
  }
]

====

target: 5-hydroxytryptamine receptor 2A (Homo sapiens, UniProt P28223)
Sequence (P28223 whole entry): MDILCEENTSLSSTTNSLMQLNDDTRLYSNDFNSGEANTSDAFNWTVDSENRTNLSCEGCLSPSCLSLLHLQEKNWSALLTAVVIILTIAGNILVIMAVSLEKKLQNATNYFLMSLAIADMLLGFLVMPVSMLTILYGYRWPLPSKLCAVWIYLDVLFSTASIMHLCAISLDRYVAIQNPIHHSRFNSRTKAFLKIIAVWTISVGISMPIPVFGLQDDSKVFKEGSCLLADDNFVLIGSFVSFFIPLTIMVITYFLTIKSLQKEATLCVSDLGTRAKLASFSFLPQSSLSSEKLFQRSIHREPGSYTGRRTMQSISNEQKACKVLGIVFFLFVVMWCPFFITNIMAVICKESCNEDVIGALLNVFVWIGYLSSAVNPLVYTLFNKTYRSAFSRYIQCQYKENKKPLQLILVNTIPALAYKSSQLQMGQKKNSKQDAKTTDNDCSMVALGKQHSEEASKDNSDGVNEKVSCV
Property label: IC50

[
  {
    "Smiles text": "CN(C)CC/C=C/c1cccnc1",
    "Target under test": "5-hydroxytryptamine receptor 2A (Homo sapiens, UniProt P28223)",
    "Property label": "IC50",
    "Measured": "> 10 µM"
  }
]

====

target: Neuronal acetylcholine receptor; alpha4/beta2 (Rattus norvegicus, UniProt P09483+P12390); test: Displacement of [3H]-cytisine from rat brain membrane alpha4beta2 nAChR; type: cell membranes
Sequence (P09483 whole entry): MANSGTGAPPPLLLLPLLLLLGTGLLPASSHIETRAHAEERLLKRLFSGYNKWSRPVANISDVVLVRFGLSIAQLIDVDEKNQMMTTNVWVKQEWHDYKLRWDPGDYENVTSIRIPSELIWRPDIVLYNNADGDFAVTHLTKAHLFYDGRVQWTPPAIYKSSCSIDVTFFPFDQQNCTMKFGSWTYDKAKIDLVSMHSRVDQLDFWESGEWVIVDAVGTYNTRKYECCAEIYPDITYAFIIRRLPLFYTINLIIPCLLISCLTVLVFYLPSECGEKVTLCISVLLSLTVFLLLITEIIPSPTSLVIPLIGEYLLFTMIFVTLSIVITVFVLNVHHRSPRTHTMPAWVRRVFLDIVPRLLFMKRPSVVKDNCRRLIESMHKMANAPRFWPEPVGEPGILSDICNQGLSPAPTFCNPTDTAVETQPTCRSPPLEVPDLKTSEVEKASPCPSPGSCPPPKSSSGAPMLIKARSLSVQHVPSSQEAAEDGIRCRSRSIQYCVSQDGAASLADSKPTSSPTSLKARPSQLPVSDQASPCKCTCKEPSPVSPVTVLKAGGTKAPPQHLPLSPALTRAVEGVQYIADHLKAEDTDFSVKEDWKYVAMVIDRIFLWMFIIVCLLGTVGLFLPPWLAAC
Sequence (P12390 whole entry): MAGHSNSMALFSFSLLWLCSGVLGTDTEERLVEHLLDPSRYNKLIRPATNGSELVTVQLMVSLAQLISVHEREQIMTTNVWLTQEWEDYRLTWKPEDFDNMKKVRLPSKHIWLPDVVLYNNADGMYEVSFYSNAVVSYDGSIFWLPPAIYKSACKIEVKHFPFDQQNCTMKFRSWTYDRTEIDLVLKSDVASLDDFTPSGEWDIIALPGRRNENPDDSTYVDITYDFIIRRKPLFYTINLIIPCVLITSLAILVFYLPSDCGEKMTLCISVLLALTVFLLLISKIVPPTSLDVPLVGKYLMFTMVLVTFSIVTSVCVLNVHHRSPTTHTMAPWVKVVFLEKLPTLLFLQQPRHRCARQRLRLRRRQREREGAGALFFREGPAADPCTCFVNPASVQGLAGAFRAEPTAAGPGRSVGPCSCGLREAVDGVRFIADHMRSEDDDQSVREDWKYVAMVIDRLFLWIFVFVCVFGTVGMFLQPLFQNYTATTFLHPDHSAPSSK
Ki: recorded values

[
  {
    "Smiles text": "C1=C[C@H](c2cccnc2)NCC1",
    "Target under test": "Neuronal acetylcholine receptor; alpha4/beta2 (Rattus norvegicus, UniProt P09483+P12390)",
    "Readout unit": "µM",
    "Ki": 0.136
  },
  {
    "Smiles text": "C1=C[C@@H](c2cccnc2)NCC1",
    "Target under test": "Neuronal acetylcholine receptor; alpha4/beta2 (Rattus norvegicus, UniProt P09483+P12390)",
    "Readout unit": "µM",
    "Ki": 0.108
  }
]

====

target: Neuronal acetylcholine receptor; alpha4/beta2 (Rattus norvegicus, UniProt P09483+P12390); assay: Displacement of [3H]epibatidine from alpha4beta2 nAChR in rat frontal cortex membrane by scintillation counting method; type: cell membranes
pKi: −log10 of the molar value.
Property label: pKi

[
  {
    "Smiles text": "CN1C(=O)CC[C@H]1c1cccnc1",
    "Measured": 5.52
  }
]
